Source listed as patent US20240132624A1.

system.name: T1, human FcRn/b2M (human, UniProt P61769 21-119, biotinylated)
T1 construct: bought recombinant biotinylated protein (ACRO FCM-H82W4 or Immunitrack ITF01); also called hFcRn; hFcRn/hb2M
protocol.notes: SPR off-rate; pH 7.4 vs pH 6.0;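 further: surface plasmon resonance with diluted periplasmic extracts flowed over ligand surfaces, 120 s association and 600–3600 s dissociation at 25 °C, running buffer containing 150 mM NaCl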
assay.readout: kd ratio pH 7.4/6.0

1) T0263018B11 S52aR (VHH, name in Kabat numbering, FLAG3-His6 tagged) VHH: EVQLVESGGGVVQPGGSLRLSCAASGFTFSSYAMYWVRQAPGKGLEWVSAISRGGGSTDYADSVKGRFTISRDNSKNTLYLQMNSLRPEDTALYYCAADTLYTSLTWYSYWGQGTLVTVSS; 56

P = T0263018B11 S52aW (VHH, name in Kabat numbering, FLAG3-His6 tagged) VHH: EVQLVESGGGVVQPGGSLRLSCAASGFTFSSYAMYWVRQAPGKGLEWVSAISWGGGSTDYADSVKGRFTISRDNSKNTLYLQMNSLRPEDTALYYCAADTLYTSLTWYSYWGQGTLVTVSS
Q = T0263018B11 S101W (VHH, name in Kabat numbering, FLAG3-His6 tagged) VHH: EVQLVESGGGVVQPGGSLRLSCAASGFTFSSYAMYWVRQAPGKGLEWVSAISSGGGSTDYADSVKGRFTISRDNSKNTLYLQMNSLRPEDTALYYCAADTLYTSLTWYWYWGQGTLVTVSS
### Prompt Select the item with the higher value of kd ratio pH 7.4/6.0 from the options P and Q listed. Respond using the label that marks the chosen record.
### Response P
